Hi there, I'd appreciate the recorded glycan array binding signal (z-score) for every entry that follows.
Target: Neu5Ac(a2-6)Gal(b1-4)GlcNAc(b1-2)Man(a1-3)[GlcNAc(b1-2)Man(a1-6)]Man(b1-4)GlcNAc(b1-4)GlcNAc
Experiment: glycan array binding signal (z-score within array); higher = stronger binding
Settings: glycan notation: IUPAC condensed, linker removed
The sample as a whole holds a higher share of the strongest signals than the screen did.
Give bare numbers.

For the binder EULS2 M1 (Oryza sativa) (protein) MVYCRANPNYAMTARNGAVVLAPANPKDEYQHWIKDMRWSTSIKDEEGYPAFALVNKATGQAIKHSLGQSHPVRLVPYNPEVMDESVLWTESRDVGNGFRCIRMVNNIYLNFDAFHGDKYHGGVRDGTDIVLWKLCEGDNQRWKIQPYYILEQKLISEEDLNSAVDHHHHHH , report glycan array binding signal (z-score). -0.661

For the binder Strep tagII-anxA1 (Homo sapiens), P04083 (protein) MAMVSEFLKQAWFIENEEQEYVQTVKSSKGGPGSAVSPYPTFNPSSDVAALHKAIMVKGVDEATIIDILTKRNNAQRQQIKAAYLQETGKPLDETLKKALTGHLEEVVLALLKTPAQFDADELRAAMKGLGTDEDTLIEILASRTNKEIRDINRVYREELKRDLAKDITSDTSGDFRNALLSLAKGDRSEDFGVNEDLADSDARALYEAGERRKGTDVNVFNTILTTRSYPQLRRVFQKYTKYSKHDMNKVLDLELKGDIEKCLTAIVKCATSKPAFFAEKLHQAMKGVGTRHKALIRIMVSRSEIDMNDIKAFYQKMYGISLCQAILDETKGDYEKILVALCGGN , report glycan array binding signal (z-score). -0.496

For the binder Banana lectin (Musa acuminata) (protein) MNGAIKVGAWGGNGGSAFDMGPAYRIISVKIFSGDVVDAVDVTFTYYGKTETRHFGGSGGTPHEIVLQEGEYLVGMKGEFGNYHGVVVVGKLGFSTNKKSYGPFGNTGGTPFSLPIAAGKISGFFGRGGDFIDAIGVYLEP , report glycan array binding signal (z-score). -0.102

More entries:
For the binder Clec2 (Mus musculus), Q9JL99 (protein) MQDEDGYITLNIKPRKQALSSAEPASSWWRVMALVLLISSMGLVVGLVALGIMSVTQQKYLLAEKENLSATLQQLAKKFCQELIRQSEIKTKSTFEHKCSPCATKWRYHGDSCYGFFRRNLTWEESKQYCTEQNATLVKTASQSTLDYIAERITSVRWIGLSRQNSKKDWMWEDSSVLRKNGINLSGNTEENMNCAYLHNGKIHPASCKERHYLICERNAGMTRVDQLL , report glycan array binding signal (z-score). -0.833
